Assay: chemical genetic growth profiling, strain panel (AID 1159580);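 further: tested at 20 µM; growth read once vehicle control cultures reached saturation at 30 °C; 1 = growth at the plate median or of vehicle wells; lower values mean less growth of the strain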
Settings: S. cerevisiae deletion strains, growth OD, locus YJL164C, strain tpk1, hits give low values
Screen size: about 5,500 compounds; about 2,000 (36%) were called active. Roughly 18% stayed inconclusive and do not appear here. The list shows a part of the results.
VALUE TYPE: normalized growth

>>> df
                                   compound            result
0  CC1(C)O[C@@H]2CC3C4CCC5=CC(=O)C=C[C@]5(C)[C@@]4(F)[C@@H](O)C[C@]3(C)[C@]2(C(=O)CO)O1 (some centres undefined)  0.994 (inactive)
1         COc1ccc(-c2cc(=O)c3ccccc3o2)cc1OC    0.855 (active)
2  CC1(C)O[C@@H]2CC3C4C[C@H](F)C5=CC(=O)C=C[C@]5(C)[C@@]4(F)[C@@H](O)C[C@]3(C)[C@]2(C(=O)CO)O1 (some centres undefined)   1.01 (inactive)

Next item in the queue.
Asked: normalized growth lookup needed for CN(C)C(=O)Oc1cc(OC(=O)N(C)C)cc(C(O)CNC(C)(C)C)c1 (centres undefined) , thanks.
Given back: 1.01 (inactive)

###

Assay: chemical genetic growth profiling, strain panel (AID 1159580)
Settings: S. cerevisiae deletion strains, growth OD, locus YBR009C, strain hhf1
Screen size: about 5,500 compounds; about 2,000 (36%) were called active. Roughly 18% stayed inconclusive and do not appear here. Rule as the data show it: active = normalized growth mostly below about 0.91 (no sharp cut-off); inconclusive = no clear call, values can overlap the other calls; inactive = mostly above about 0.92. The list shows a part of the results.
Would you mind answering with one of these outcomes? active, inactive

COMPOUND	CLASS NAME
CN(C)CCC=C1c2ccccc2CCc2ccccc21	inactive

Asked: // outcome(item) with item = C[N+]1(CCCCC[N+]2(C)CCCC2)CCCC1
Given back: inactive

Asked: Cool, now COc1c(O)cccc1O
Given back: inactive

Asked: Also check CN(C)C(=O)Oc1cc(OC(=O)N(C)C)cc(C(O)CNC(C)(C)C)c1 (stereo unspecified)
Given back: inactive

Asked: Please answer likewise for COc1ccc(-c2cc(=O)c3c(OC)c(OC)c(OC)c(OC)c3o2)cc1
Given back: inactive

Asked: Could you do the same for O=C1CN2Cc3c(ccc(Cl)c3Cl)N=C2N1 , please?
Given back: inactive

Asked: Another compound to check: COc1ccc(-c2cc(=O)c3cc(OC)ccc3o2)cc1
Given back: active

Asked: Could you do the same for CNCCC=C1c2ccccc2CCc2ccccc21 , please?
Given back: inactive

Asked: Next entry: CN(N=O)C(=O)N[C@@H]1[C@@H](O)[C@H](O)[C@@H](CO)O[C@@H]1O
Given back: inactive

Asked: Cool, now S=c1ccss1
Given back: inactive

Asked: Also O=C1c2c(O)ccc(O)c2C(=O)c2c(NCCNCCO)ccc(NCCNCCO)c21 , if possible.
Given back: active

###

Assay: chemical genetic growth profiling, strain panel (AID 1159580)
Details: S. cerevisiae deletion strains, growth OD, locus YCL069W, strain vba3
Hit rate of the full screen: of about 5,500 compounds, about 2,000 (36%) were called active. About 18% were inconclusive and are not listed. No stated cut-off is given here; in the data, active means normalized growth mostly below about 0.91 (no sharp cut-off); inconclusive means no clear call, values can overlap the other calls; inactive means mostly above about 0.92. The list shows a part of the results.
Just give me one of these, please: active, inactive

Previously resolved entries follow.
>>> df
                                   compound  class_name
0                      Nc1ccc(C(=O)O)c(O)c1    inactive
1  OC1C(O)C(O)C(O)C(O)C1O (configuration not stated)    inactive
2  CC(=O)CC(c1ccccc1)c1c(O)c2ccccc2oc1=O (configuration not stated)    inactive
3              Nc1ccc(C(=O)Oc2ccccc2)c(O)c1    inactive
4  COc1cc([C@@H]2c3cc4c(cc3[C@H](OC(C)=O)[C@H]3COC(=O)[C@H]23)OCO4)cc(OC)c1OC    inactive

Asked: Please state the recorded outcome for this compound: COc1cc([C@@H]2c3cc4c(cc3[C@H](O)[C@H]3COC(=O)[C@@H]23)OCO4)cc(OC)c1OC
Given back: inactive

Asked: // same read-out, input: Cc1cc2cc3c(C)cc(=O)oc3c(C)c2o1
Given back: inactive

Asked: Further, for O=c1oc2ccccc2c(O)c1Cc1c(O)c2ccccc2oc1=O ?
Given back: inactive

Asked: Also CC1(C)O[C@@H]2CC3C4C[C@H](F)C5=CC(=O)C=CC5(C)C4C(O)CC3(C)[C@]2(C(=O)CO)O1 (some centres not stated) ?
Given back: inactive

Asked: Try this compound too: O=C(O)c1cc(=O)c2ccccc2o1
Given back: inactive

Asked: Also CC(=O)Nc1cccc(O)c1 ?
Given back: inactive

Asked: Do the same for CC(=O)Nc1ccc(OC(=O)c2ccccc2O)cc1 please
Given back: active

###

Assay: chemical genetic growth profiling, strain panel (AID 1159580);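 further: tested at 20 µM; growth read once vehicle control cultures reached saturation at 30 °C; 1 = growth at the plate median or of vehicle wells; lower values mean less growth of the strain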
Settings: S. cerevisiae deletion strains, growth OD, locus YLR370C, strain arc18, hits give low values
The whole screen tested about 5,500 compounds, of which about 2,000 (36%) were called active. Another 18% or so got no clear call; they are omitted. This is one part of the list.
VALUE TYPE: normalized growth
A bare number is all that is needed in reply.

COMPOUND	normalized growth
O=c1[nH]c2cc(Cl)c(Cl)cc2[nH]c1=O	0.995
C[C@@H]1CC[C@@]2(OC1)OC1C(O)C3C4CC[C@H]5C[C@H](O[C@@H]6O[C@H](CO)[C@H](O[C@@H]7O[C@H](CO)[C@@H](O)[C@H](O[C@@H]8OC[C@@H](O)[C@H](O)[C@H]8O)[C@H]7O[C@@H]7O[C@H](CO)[C@H](O)[C@H](O[C@@H]8O[C@H](CO)[C@@H](O)[C@H](O)[C@H]8O)[C@H]7O)[C@H](O)[C@H]6O)[C@H](O)C[C@]5(C)C4CC[C@]3(C)C1[C@@H]2C (stereo not given in full)	1.02
CC[N+]1(C)CCCC(OC(=O)C(O)(c2ccccc2)c2ccccc2)C1 (stereo not given)	1.03

Asked: Which normalized growth is reported for this compound? CCCN1C[C@H](CSC)C[C@@H]2c3cccc4[nH]cc(c34)C[C@H]21
Given back: 1.01

Asked: Param item: O=C(/C=C/c1ccccc1)c1ccc(O)cc1
Given back: 0.447

###

Experiment: chemical genetic growth profiling, strain panel (AID 1159580);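 further: tested at 20 µM; growth read once vehicle control cultures reached saturation at 30 °C; 1 = growth at the plate median or of vehicle wells; lower values mean less growth of the strain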
Details: S. cerevisiae deletion strains, growth OD, locus YDR388W, hits give low values
Out of some 5,500 compounds screened, about 2,000 (36%) were called active. Inconclusive results (about 18%) are left out. This is one part of the list.
VALUE TYPE: normalized growth
Could you respond with only the numeric value?

Use these answered entries as a reference point.
COMPOUND	VALUE TYPE	RESULT NUMBER
CC(=O)O[C@H]1C[C@@H](O)C(C)(C)C2C[C@@H](OC(C)=O)[C@]3(C)C(CC[C@@]4(C)[C@H](c5ccoc5)OC(=O)C5OC543)[C@]21C (stereo partly drawn)	normalized growth	1
CC(=O)O[C@H]1C[C@@]2(C)[C@H](c3ccoc3)OC(=O)[C@H]3O[C@]32[C@@]2(C)C1[C@]1(C)C(C[C@H]2OC(C)=O)C(C)(C)[C@H](OC(C)=O)C[C@@H]1OC(C)=O (stereo partly drawn)	normalized growth	0.983
COc1ccc(-c2coc3cc(O)cc(O)c3c2=O)cc1	normalized growth	0.286
O=c1c2ccccc2[se]n1-c1ccccc1	normalized growth	0.0602
O=C1CC[C@]23C=CC(=O)NCCCCNCCCNC(=O)/C=C/c4ccc(c2c4)O[C@@H]3C1	normalized growth	0.993
CC(=O)Oc1cc(-c2coc3cc(OC(C)=O)c(OC(C)=O)c(OC(C)=O)c3c2=O)cc(OC(C)=O)c1OC(C)=O	normalized growth	0.978
COc1ccc(-c2cc(=O)c3c(OC(C)=O)cc(OC(C)=O)cc3o2)cc1	normalized growth	0.973

Pending compound:
Asked: Name the recorded normalized growth for CC(=O)O[C@@H]1CC2C(C)(C)CCC(=O)[C@]2(C)C2CC[C@@]3(C)[C@H](c4ccoc4)OC(=O)C4OC43[C@@]21C (stereo partly drawn) .
Given back: 0.98

###

Test: chemical genetic growth profiling, strain panel (AID 1159580);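 further: tested at 20 µM; growth read once vehicle control cultures reached saturation at 30 °C; 1 = growth at the plate median or of vehicle wells; lower values mean less growth of the strain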
Conditions: S. cerevisiae deletion strains, growth OD, locus YJL092W, strain hpr5, hits give low values
About 2,000 (36%) of roughly 5,500 compounds were called active. About 18% were inconclusive and are not listed. Some of the results follow.
Collected normalized growth values appear next to each entry.
Enter a number only.

Some entries whose results are on file:
COMPOUND	VALUE TYPE	RESULT NUMBER
COc1cc([C@@H]2c3cc4c(cc3C(O[C@@H]3O[C@@H]5CO[C@@H](c6cccs6)OC5[C@H](O)[C@H]3O)C3COC(=O)[C@@H]32)OCO4)cc(OC)c1O (some centres not stated)	normalized growth	0.977
CCOC(=O)C1C(C=C(C)C)C1(C)C (configuration not stated)	normalized growth	1
C=CCc1ccccc1OCC(O)CNC(C)C (configuration not stated)	normalized growth	1
CN(C)CCC=C1c2ccccc2CCc2ccccc21	normalized growth	0.979
COc1cc([C@@H]2c3cc4c(cc3[C@H](OC(C)=O)[C@H]3COC(=O)[C@H]23)OCO4)cc(OC)c1OC	normalized growth	1.01

Asked: Entry C/C(=C\C(=O)OCCCCCCCCC(=O)O)C[C@@H]1OC[C@H](C[C@@H]2O[C@H]2[C@@H](C)[C@H](C)O)[C@@H](O)[C@H]1O has what normalized growth?
Given back: 0.96

Asked: Next compound up: CN(C)CCC=C1c2ccccc2C=Cc2ccccc21
Given back: 0.98
